system: clostripain; construct: is a two-chain proteinase that can be isolated from Clostridium histolyticum; purchased Worthington LS001641; assay: Clostripain cleavage, LC/MS analysis; format: in vitro ADME, Clostridium histolyticum; conditions: Clostridium histolyticum, clostripain (isolated protease), pH 7.6, 5 U clostripain/mg, 6 h; read-out: remaining % ABD variant
Where no end group is shown, it is not given here.
Let's look at some sequences and their measured remaining at 6 h.
Readout Type: remaining at 6 h (%)

[
  {
    "Sequence Text": "GSSLAEAKEAANAELDSYGVSDFYKNLIDKAKTVEGVEALKDAILAALP [PEP12379]",
    "Tested Target": "clostripain",
    "Readout Type": "remaining at 6 h",
    "Test Result": 58
  },
  {
    "Sequence Text": "GSSLAEAKEAANAELDSYGVSDFYKSLIDKAKTVEGVEALKDAILAALP [PEP12381]",
    "Tested Target": "clostripain",
    "Readout Type": "remaining at 6 h",
    "Test Result": 44
  },
  {
    "Sequence Text": "GSSLAEAKEAANAELDSYGVSDFYKRLIDKAKTVEGVEALKDAILAALP [PEP07843, reference compound]",
    "Tested Target": "clostripain",
    "Readout Type": "remaining at 6 h",
    "Test Result": 0
  },
  {
    "Sequence Text": "GSSLAEAKEAANAELDSYGVSDFYKKLIDKAKTVEGVEALKDAILAALP [PEP12380]",
    "Tested Target": "clostripain",
    "Readout Type": "remaining at 6 h",
    "Test Result": 77
  }
]

* * *

tested on: clostripain; construct: is a two-chain proteinase that can be isolated from Clostridium histolyticum; purchased Worthington LS001641; experiment: Clostripain cleavage, LC/MS analysis; type: in vitro ADME, Clostridium histolyticum; conditions: Clostridium histolyticum, clostripain (isolated protease), pH 7.6, 0.2 U clostripain/mg, 5 min; read-out: remaining % ABD variant
Where no end group is shown, it is not given here.

[
  {
    "Sequence Text": "GSSLAEAKEAANAELDSYGVSDFYKNLIDKAKTVEGVEALKDAILAALP [PEP12379]",
    "remaining at 5 min, %": 101
  },
  {
    "Sequence Text": "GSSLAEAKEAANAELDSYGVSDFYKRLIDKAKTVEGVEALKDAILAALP [PEP07843, reference compound]",
    "remaining at 5 min, %": 101
  },
  {
    "Sequence Text": "GSSLAEAKEAANAELDSYGVSDFYKSLIDKAKTVEGVEALKDAILAALP [PEP12381]",
    "remaining at 5 min, %": 100
  },
  {
    "Sequence Text": "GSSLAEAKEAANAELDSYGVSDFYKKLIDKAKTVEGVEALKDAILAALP [PEP12380]",
    "remaining at 5 min, %": 101
  }
]

* * *

system: clostripain; construct: is a two-chain proteinase that can be isolated from Clostridium histolyticum; purchased Worthington LS001641; assay: Clostripain cleavage, LC/MS analysis; format: in vitro ADME, Clostridium histolyticum; conditions: Clostridium histolyticum, clostripain (isolated protease), pH 7.6, 0.2 U clostripain/mg, 30 min; read-out: remaining % ABD variant
Where no end group is shown, it is not given here.
Let's look at some sequences and their measured remaining at 0.5 h.

[
  {
    "Sequence Text": "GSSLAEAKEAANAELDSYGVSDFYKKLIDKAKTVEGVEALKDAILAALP [PEP12380]",
    "Unit Label": "%",
    "remaining at 0.5 h": 101
  },
  {
    "Sequence Text": "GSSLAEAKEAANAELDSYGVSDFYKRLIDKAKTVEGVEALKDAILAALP [PEP07843, reference compound]",
    "Unit Label": "%",
    "remaining at 0.5 h": 100
  },
  {
    "Sequence Text": "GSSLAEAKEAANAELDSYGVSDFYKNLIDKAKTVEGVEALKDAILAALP [PEP12379]",
    "Unit Label": "%",
    "remaining at 0.5 h": 99
  },
  {
    "Sequence Text": "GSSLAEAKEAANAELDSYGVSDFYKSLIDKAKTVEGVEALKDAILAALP [PEP12381]",
    "Unit Label": "%",
    "remaining at 0.5 h": 100
  }
]
